Molecular target: T1, human FAP (Homo sapiens, UniProt Q12884)
T1 sequence (Q12884 1-760): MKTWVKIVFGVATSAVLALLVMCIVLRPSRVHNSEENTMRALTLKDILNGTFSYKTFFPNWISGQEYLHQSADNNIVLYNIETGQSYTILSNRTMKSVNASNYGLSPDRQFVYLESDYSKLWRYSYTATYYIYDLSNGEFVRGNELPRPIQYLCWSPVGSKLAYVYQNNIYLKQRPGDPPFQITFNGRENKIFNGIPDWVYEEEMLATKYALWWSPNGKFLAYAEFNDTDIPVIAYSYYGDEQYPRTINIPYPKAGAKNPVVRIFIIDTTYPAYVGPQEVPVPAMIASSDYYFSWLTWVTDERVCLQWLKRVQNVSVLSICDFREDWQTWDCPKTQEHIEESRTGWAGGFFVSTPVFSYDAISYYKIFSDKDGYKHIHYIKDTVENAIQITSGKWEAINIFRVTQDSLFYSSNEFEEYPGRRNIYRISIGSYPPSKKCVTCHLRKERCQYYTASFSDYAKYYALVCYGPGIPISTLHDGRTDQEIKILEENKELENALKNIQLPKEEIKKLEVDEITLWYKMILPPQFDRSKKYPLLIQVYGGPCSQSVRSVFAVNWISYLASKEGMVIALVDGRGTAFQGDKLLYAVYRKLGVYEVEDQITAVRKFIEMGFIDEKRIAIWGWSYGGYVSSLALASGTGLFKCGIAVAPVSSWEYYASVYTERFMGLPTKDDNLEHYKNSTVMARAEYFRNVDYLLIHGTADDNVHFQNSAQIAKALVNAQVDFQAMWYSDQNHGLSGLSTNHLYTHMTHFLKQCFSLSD
Test: BLI (Octet) binding kinetics pre- and post-TCO conjugation (Example 7, Table 17)
Settings: Pre conjugation (TCO)
# Lookup of reported koff keyed by entry
value_type: koff (s⁻¹)

{"molecule": "VHH6: VHH, target FAP, SEQ ID NO 89 (protein) VHH: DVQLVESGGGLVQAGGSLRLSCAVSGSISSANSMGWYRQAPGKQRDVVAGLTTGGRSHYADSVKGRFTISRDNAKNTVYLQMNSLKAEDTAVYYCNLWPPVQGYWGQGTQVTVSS", "value_type": "koff", "measure_unit": "s⁻¹", "value_observed": 0.000188}
{"molecule": "VHH1: VHH, target FAP, SEQ ID NO 4 (protein, VHH1) VHH: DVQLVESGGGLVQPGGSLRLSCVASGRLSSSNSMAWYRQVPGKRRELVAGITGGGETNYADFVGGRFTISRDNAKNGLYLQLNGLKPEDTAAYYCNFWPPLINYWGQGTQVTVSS", "value_type": "koff", "measure_unit": "s⁻¹", "value_observed": "8.52e-05"}
{"molecule": "VHH8: VHH, target FAP, SEQ ID NO 91 (protein) VHH: QVQLQESGGGTVQPGGSLRLSCAASGISVSIASMAWYRQAPGKQRELVAGIISGGSTNYADSVKGRFTISRDNAKKVVLLQMNSLKPEDTAVYYCNTYPPFVGPGATATWGQGTQVTVSSAAAYPYDVPDYGSHHHHHH", "value_type": "koff", "measure_unit": "s⁻¹", "value_observed": 0.000679}
{"molecule": "VHH9: VHH, target FAP, SEQ ID NO 92 (protein) VHH: QVQLQESGGGLVQSGGSLRLSCVASGSISSINAMGWYRQAPGNKREWVAGITSGGSTNYADAVLGRFSIFRDNPKNTVYLQMNSLKPEDTAVYYCNTWPPSTFGSWGQGTQVTVSSAAAYPYDVPDYGSHHHHHH", "value_type": "koff", "measure_unit": "s⁻¹", "value_observed": 0.0018}
{"molecule": "VHH7: VHH, target FAP, SEQ ID NO 90 (protein) VHH: QVQLQESGGGLVQAGGSLRLSCTASGTFSGRNAMAWYRQAPGKRRELVAGIRSDDSTNYVDSVKGRFTISRDNAKNTVYLQMNSLRPEDTAVYYCNLWPPVIGAGFGSWGQGTQVTVSSAAAYPYDVPDYGSHHHHHH", "value_type": "koff", "measure_unit": "s⁻¹", "value_observed": 0.000197}

Measured values drawn from patent US20250122304A1 for this set.
